Reported inhibition by item:
Tested on: Heat shock protein HSP 90 (rabbit reticulocyte lysate; luciferase refolding)
Assay: HSP90 inhibitors, primary screen, cell lysate, luminescence (AID 1789);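 further: 0% = DMSO wells and 100% = 60 µM geldanamycin wells; inhibitors lower the luminescence because luciferase stays unfolded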
Conditions: 3 h, at 5.6 µM, active compounds read high
Out of some 290,000 compounds screened, about 2,700 (0.93%) were called active. This excerpt belongs to a sample that is enriched for actives.
# output: bare number, implied unit %

• CCOc1ccc(N/C=C/C(=O)c2ccccc2)cc1 = 51

Q. Return reported inhibition; argument: CCOc1cc2ccccc2cc1C(=O)Nc1ccccn1
A. -0.82

Q. Same question, O=C(/C=C\NCC(=O)c1ccccc1)c1ccccc1 this time
A. 2.9

Q. What do you have for C=CCN(C(=O)Nc1ccc2c(c1)nc(C)n2C)c1ccccc1 ?
A. 2.61

Q. Consider next the compound CCc1ccc2oc(-c3ccc(N)cc3)nc2c1 in the same way.
A. 26.4

Q. Follow-up item: C=Cn1cc[n+](CC(=O)c2ccc(OC)c(OC)c2)c1
A. 9.58

Q. Next: Cc1cc(N/C=C\C(=O)c2ccc(Cl)c(Cl)c2)no1
A. -0.49

Q. Likewise for Cc1ccc2c(C)c(C(=O)N(C)CCC3CCCCO3)oc2c1C (stereo not drawn) ?
A. -5.53

Q. Cool, now COc1ccc(C(=O)/C=C/Nc2ccccn2)cc1
A. 65.4

---

System: Heat shock protein HSP 90 (rabbit reticulocyte lysate; luciferase refolding)
Assay: HSP90 inhibitors, primary screen, cell lysate, luminescence (AID 1789)
Details: 3 h, at 5.6 µM
Out of some 290,000 compounds screened, about 2,700 (0.93%) were called active.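 How the source made its calls: active means inhibition above the screen-wide mean plus 3 SD, computed separately per campaign (cut at about 16% in these data); inactive means the rest.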 The sample holds actives, similar compounds and a random draw of the others, so the mix is not that of the screen.
Classes to choose from: active, inactive

# example entries with known answers
• Cc1nc2ccccc2nc(C)c1=NOCc1ccc(Cl)cc1Cl = inactive
• CCOc1ccc(OCc2ccc(C(=O)N(C)c3ccccc3)o2)cc1 = active
• COc1cc(/C=C(\C#N)c2nc3ccccc3[nH]2)ccc1O = inactive

Q. Outcome? CC(NC(=O)c1ccco1)c1ccc2c(c1)OCO2 (configuration not stated)
A. inactive

Q. // next record COC(=O)c1ccc(COc2ccc(C#N)cc2)o1
A. inactive

Q. Thanks! And COc1ccc(-c2nc(-c3ccccc3)no2)c(OC)c1 ?
A. active

Q. What do you have for COc1ccc(C2NC(=S)NC3=C2CCc2ccccc23)cc1OC (configuration not stated) ?
A. inactive

Q. // next record COc1ccccc1Cc1nc(-c2ccc(C)cc2)no1
A. inactive

---

Test system: Heat shock protein HSP 90 (rabbit reticulocyte lysate; luciferase refolding)
Assay: HSP90 inhibitors, primary screen, cell lysate, luminescence (AID 1789)
Conditions: 3 h, at 5.6 µM, active compounds read high
The campaign covered roughly 290,000 compounds. About 2,700 (0.93%) were called active. The entries come from a sample that favours actives as a whole.
Overview of reported inhibition across a group of compounds:
I only need the number, in %, no unit after it.

- O=C(O)c1ccc(N=NN2CCOCC2)cc1: 20.6
- NC1=NN(c2cccc(C(=O)O)c2)C(=O)C1: 3.9
- CCCS(=O)(=O)N1CCCC(C(=O)NCCN2CCCCC2C)C1 (stereo not drawn): 20.8
- Nc1nnnn1/N=C/c1cccc(Br)c1: -1.72
- O=C(O)c1cccc(N=NN2CCCCCC2)c1: 37.5
- CC(=O)Oc1ccc2c(c1)C(=O)c1ccccc1C2=O: 4.58

Q. Using the record for O=C(NC(=O)N1CCOCC1)c1ccccc1 , report its inhibition.
A. 0.55

Q. Entry COc1ccc(NC(=O)CSc2nc(C)cs2)cc1 please
A. -1.43

Q. Follow-up entry: COc1ccccc1CN1CCCC(N2CCN(c3ccc(F)cc3)CC2)C1 (stereo not drawn)
A. -1.44

Q. Also need CN1CCN(S(=O)(=O)c2cccc(C(=O)O)c2)CC1 , thanks.
A. -1.11

Q. # repeat for CCS(=O)(=O)N1CCCC(C(=O)NCc2ccc(C)cc2)C1 (stereo not drawn)
A. -1.37

Q. Please give the result for O=C(c1ccccc1)N1CCN(C(=O)N2CCCCC2)CC1 too.
A. -0.28

Q. Now the compound COc1cc2c(C(=O)O)c(C)n(C)c2c2ccccc12
A. 1.04

---

Tested on: Heat shock protein HSP 90 (rabbit reticulocyte lysate; luciferase refolding)
Assay: HSP90 inhibitors, primary screen, cell lysate, luminescence (AID 1789);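 further: 0% = DMSO wells and 100% = 60 µM geldanamycin wells; inhibitors lower the luminescence because luciferase stays unfolded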
Settings: 3 h, at 5.6 µM
The whole screen tested about 290,000 compounds, of which about 2,700 (0.93%) were called active.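 How the source made its calls: active means inhibition above the screen-wide mean plus 3 SD, computed separately per campaign (cut at about 16% in these data); inactive means the rest.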 What follows is part of a selection rich in actives, with near analogues and random picks from the rest.
# output must be one of active, inactive

Reference set (10 entries):
• CS(=O)(=O)N1CCN(C(=O)Cc2ccccc2)CC1 = inactive
• COc1cccc(CNS(=O)(=O)c2ccc3c(c2)CC(C)N3C(C)=O)c1 (stereo not drawn) = inactive
• Clc1ccc(-c2ncc3ccccn23)c(Cl)c1 = inactive
• CCCCCc1ccc(-c2ccc(OCC)cc2)nc1 = inactive
• O=c1oc2ccccc2cc1-c1cn(-c2ccccc2)c(=S)[nH]1 = active
• Cn1c(=O)c2c(nc(CN3CCOCC3)n2Cc2ccccc2)n(C)c1=O = inactive
• CCCn1nc(NC(=O)C(C)C)c2cc3cc(OC)ccc3nc21 = inactive
• COc1ccc(OCc2cc(C(=O)NCC3(C)COC3)no2)c(Cl)c1 = inactive
• COc1ccc(C(C)NC(=O)C2CCCC2)cc1 (stereo not drawn) = inactive
• O=C(C1CCC1)N1CCN(c2ccccc2)CC1 = inactive

Q. What outcome does the record of this test show for O=C(Cc1ccsc1)N1CCN(S(=O)(=O)c2cc(C(F)(F)F)cc(C(F)(F)F)c2)CC1 ?
A. inactive

Q. # repeat for COc1ccc(N(CC(=O)NCC2CCCO2)C(=O)CCC(=O)Nc2nccs2)c(OC)c1 (stereo not drawn)
A. inactive

Q. Same for COc1cccc(C(=O)NNC(=O)/C=C/c2ccccc2)c1
A. inactive

Q. Try the molecule COC(=O)C1=C(O)/C(=C/c2ccc(OCC(=O)Nc3ccccc3)cc2)N=C1C
A. inactive

Q. Then what about the molecule CCCCCc1ccc(-c2ccc(C(=O)O)cc2)nc1 ?
A. active

Q. Then this molecule: COc1ccc(-c2cn(-c3ccc(OC)cc3)c(=S)[nH]2)cc1
A. inactive

Q. Another: O=C1CSC(c2ccccc2)N1c1nc(-c2ccc(Cl)cc2Cl)cs1 (stereo not drawn)
A. inactive

Q. Same read-out for CC(C)Nc1ccc(-n2nc3ccccc3[n+]2[O-])cc1 ?
A. active

Q. Would you kindly repeat that for Cc1ccc2c(=O)cc(C(=O)NCCc3ccc(S(N)(=O)=O)cc3)oc2c1C ?
A. inactive

Q. What do we get for Cc1cc(C)nc(/N=C2\NC(=O)CC(C(=O)O)N2c2ccc(Cl)cc2Cl)n1 (stereo not drawn) ?
A. inactive

Q. Now give it for Cc1cccc(N=C2NN=C(c3c[nH]c4ccccc34)CS2)c1 too.
A. inactive

Q. Please do the same for Cc1csc(SCC(=O)Nc2sccc2C#N)n1 as well.
A. active

Q. Please answer likewise for CCc1ccccc1OCC(=O)Nc1ccc2c(c1)OCCO2
A. inactive

---

Tested on: Heat shock protein HSP 90 (rabbit reticulocyte lysate; luciferase refolding)
Test: HSP90 inhibitors, primary screen, cell lysate, luminescence (AID 1789);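 further: 0% = DMSO wells and 100% = 60 µM geldanamycin wells; inhibitors lower the luminescence because luciferase stays unfolded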
Conditions: 3 h, at 5.6 µM
Among all 290,000 compounds or so, about 2,700 (0.93%) were called active.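 Rule for the calls: active = inhibition above the screen-wide mean plus 3 SD, computed separately per campaign (cut at about 16% in these data); inactive = the rest.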 This excerpt belongs to a sample that is enriched for actives.
Returns: one label drawn from t = active, f = inactive

- Cc1ccc2c(N)c(C(=O)c3ccccc3)sc2n1: f

Q. Given CCCc1nc2ccccc2c(C(=O)OCC(=O)c2ccc3c(c2)NC(=O)CO3)c1CC , state the outcome it received in this test.
A. f

Q. Record: COc1cccc(NC(=O)C/C(C)=N/NC(=O)C2CCCCC2)c1
A. f

Q. Entry O=C(Nc1ccccc1F)c1ccc2c(c1)OCO2 please
A. f

Q. Request: COc1cc(OC)c(C(=S)N2CCCC2)cc1OC
A. f

Q. COc1ccc(C(=O)N[C@H](C(=O)NCc2ccccc2)C(C)C)cc1 , same question.
A. f

Q. Now consider CCOc1ccc(-n2c(SCC(N)=O)nnc2-c2ccco2)cc1 .
A. f

Q. Cool, now CCCCNC(=O)Nc1c(C)cc(SC#N)cc1C
A. t

Q. Same lookup for O=C(COc1cc2oc(=O)c3c(c2cc1Cl)CCC3)NCCCN1CCOCC1 , please.
A. f

---

Tested on: Heat shock protein HSP 90 (rabbit reticulocyte lysate; luciferase refolding)
Experiment: HSP90 inhibitors, primary screen, cell lysate, luminescence (AID 1789);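 further: 0% = DMSO wells and 100% = 60 µM geldanamycin wells; inhibitors lower the luminescence because luciferase stays unfolded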
Details: 3 h, at 5.6 µM, active compounds read high
Screen size: about 290,000 compounds; about 2,700 (0.93%) were called active. The entries come from a sample that favours actives as a whole.
recorded endpoint: inhibition

Illustrative cases are given below, each with its answer.
• CC(OC(=O)c1ccc2noc(-c3ccccc3)c2c1)C(N)=O (centres undefined) = 26.5% (active)
• Oc1ccc(N=Nc2nccs2)c(O)c1 = 0.13% (inactive)
• Cc1ccc(Nc2nc(-c3ccc(O)cc3O)cs2)nc1 = 28.1% (active)
• CC(C)c1ccc(NC(=O)C2CCCN(S(=O)(=O)c3cccnc3)C2)cc1 (centres undefined) = -1.95% (inactive)
• CCOC(=O)c1ccc(NC(=O)c2ccc(NC(=O)C3CCCO3)cc2)cc1 (centres undefined) = -2.21% (inactive)
• COc1ccc(C(=O)Nc2ccccc2C(=O)N/N=C/c2ccc(O)c(OC)c2)cc1 = 89% (active)

Q. So what does the record say about inhibition for Cc1ccc(-n2cc3ccc([N+](=O)[O-])cc3n2)cc1 ?
A. 9.46% (inactive)

Q. Also O=C(CCCC(=O)N1CCN(c2cccc(Cl)c2)CC1)c1ccccc1 ?
A. -3.4% (inactive)

Q. What about this molecule? Cc1ccc(-c2cn3cc(C)ccc3n2)cc1
A. 84.1% (active)

Q. Same thing, different molecule: O=C(Nc1ccn(Cc2ccccc2)n1)c1cccc(F)c1
A. 11.1% (inactive)
